Every entry's value here was drawn from the supplement of paper PMC10567573.

assay: protein stability index of a GFP-peptide fusion (GPS, HEK-293T) (PSI 1-6); higher = more stable; conditions: treatment: DMSO; c terminus: a fixed tail appended;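 further: 24-mer peptide tiles fused after GFP, lentivirally expressed, FACS-sorted into six equal bins by GFP/DsRed ratio, decoded by Illumina sequencing, PSI is the read-weighted mean bin number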
# protein stability index listing for each entry below

# annotated cases, reported protein stability index shown
IMLRSNESFTMDDMSWTCGNQDYK [VDR]
2.86
SKAVFLWNMDKYTMIRKLEGHHHD [WSB1]
2.24
FGLSILWVLLFTPCSFVCWYRPMY [SCAMP3]
2.97

Quick note, protein stability index for MVQLDSIEDLEVTCTWKLPTLAKF [PRAME] landed at 2.6

Quick note, protein stability index for FNAGIQQAFQLPKLGALLSRCRKL [ZBED1] landed at 2.63

Quick note, protein stability index for ARQATNLKVNFFFERIMKYERLAR [FBXO39] landed at 2.75

Quick note, protein stability index for PDKEEQLPFGPFNGTAWTYHSQDE [PKD2L1] landed at 4.67

Quick note, protein stability index for DEKQQEANETLAEMEEELRYAPLS [VTI1B] landed at 5.55

Quick note, protein stability index for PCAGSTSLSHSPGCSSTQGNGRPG [LCOR] landed at 3.74

Quick note, protein stability index for LAAPSLHVKEQLPCAGLNCQALDA [TLE6] landed at 3.92

Quick note, protein stability index for LVGDSDVGKGEILASLQDGAAESP [RAB40B] landed at 5.18

Quick note, protein stability index for LGYLLDKETLRLHPDIFLPSEICD [ZER1] landed at 2.4

Quick note, protein stability index for DEWACELRLFGRVLERAACLRRCK [P3H4] landed at 2.74
